molecular target: BDNF/NT-3 growth factors receptor (Homo sapiens); experiment: Inhibition of TRKB (unknown origin)
The source made the active and inactive calls. The rule behind the calls is not given here.
metric: inhibition

OC[C@H]1C[C@@H](Nc2nc(NC3CCOCC3)ncc2-c2nc3ccccc3s2)[C@H](O)[C@@H]1O: Active
CCCNc1ncc(-c2nc3ccccc3s2)c(N[C@@H]2C[C@H](CO)[C@@H](O)[C@H]2O)n1: Active
Nc1nc(Cl)c(-c2nc3ccccc3s2)c(N[C@@H]2C[C@H](CO)[C@@H](O)[C@H]2O)n1: Active

---

target: Interleukin-1 receptor-associated kinase 4 (Homo sapiens, UniProt Q9NWZ3); assay: Inhibition of N-terminal GST tagged human recombinant full-length IRAK4 expressed in Sf9 insect cells assessed as reduction in substrate phosphorylation using RP7030 peptide substrate and ATP incubated for 30 mins fluorescence polarization assay
Sequence (Q9NWZ3 whole entry): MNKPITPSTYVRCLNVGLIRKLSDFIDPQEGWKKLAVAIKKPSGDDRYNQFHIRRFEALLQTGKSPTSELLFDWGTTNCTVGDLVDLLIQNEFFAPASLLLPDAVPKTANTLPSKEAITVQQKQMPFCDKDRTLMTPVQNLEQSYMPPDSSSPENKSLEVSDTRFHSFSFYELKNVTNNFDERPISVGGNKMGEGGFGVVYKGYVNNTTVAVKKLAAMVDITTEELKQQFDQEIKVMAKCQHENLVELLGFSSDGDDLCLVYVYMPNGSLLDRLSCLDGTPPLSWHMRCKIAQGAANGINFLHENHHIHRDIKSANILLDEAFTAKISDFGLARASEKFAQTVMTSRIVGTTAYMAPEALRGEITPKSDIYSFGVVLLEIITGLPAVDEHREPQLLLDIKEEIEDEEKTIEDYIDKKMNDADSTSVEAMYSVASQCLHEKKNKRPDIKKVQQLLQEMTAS
metric: IC50

Nc1ncc(-c2ccccc2)c(N[C@@H]2C[C@H](CO)[C@@H](O)[C@H]2O)n1: > 20000 nM
Nc1ncc(-c2cnc3ccccn23)c(N[C@@H]2C[C@H](CO)[C@@H](O)[C@H]2O)n1: 1140 nM
OC[C@H]1C[C@@H](Nc2nc(Nc3cncnc3)ncc2-c2nc3ccccc3s2)[C@H](O)[C@@H]1O: 6000 nM
COCCCNc1ncc(-c2nc3ccccc3s2)c(N[C@@H]2C[C@H](CO)[C@@H](O)[C@H]2O)n1: 228 nM

Enquiry: Note IC50 for the molecule shown: `OC[C@H]1C[C@@H](Nc2nc(NC3CCOCC3)ncc2-c2nc3ccccc3s2)[C@H](O)[C@@H]1O`
Return: 1080 nM

Enquiry: Tell me its IC50 given `COc1nc(N)nc(N[C@@H]2C[C@H](CO)[C@@H](O)[C@H]2O)c1-c1nc2ccccc2s1` as the entry.
Return: > 20000 nM

Enquiry: Indicate the recorded IC50 value for this molecule: `OC[C@H]1C[C@@H](Nc2nc(NC3CCCCC3)ncc2-c2nc3ccccc3s2)[C@H](O)[C@@H]1O`
Return: 3010 nM

Enquiry: Entry `CCCNc1nc(C)c(-c2nc3ccccc3s2)c(N2CCOCC2)n1` needs its IC50 filled in; supply it.
Return: > 20000 nM

Enquiry: Please give the documented IC50 of `Nc1nc(N[C@@H]2C[C@H](CO)[C@@H](O)[C@H]2O)c(-c2nc3ccccc3s2)c(C2CC2)n1`
Return: > 20000 nM

Enquiry: For the molecule `OC[C@H]1C[C@@H](Nc2nc(NCC3CC3)ncc2-c2nc3ccccc3s2)[C@H](O)[C@@H]1O` , report IC50.
Return: 333 nM

Enquiry: Give me measured IC50, please, for this molecule: `OC[C@H]1C[C@@H](Nc2nc(NC3CCC3)ncc2-c2nc3ccccc3s2)[C@H](O)[C@@H]1O`
Return: 403 nM

---

biological target: Interleukin-1 receptor-associated kinase 4 (Homo sapiens); assay: Inhibition of N-terminal GST tagged human recombinant full-length IRAK4 expressed in Sf9 insect cells assessed as reduction in substrate phosphorylation using RP7030 peptide substrate and ATP incubated for 30 mins fluorescence polarization assay
Below, each entry is listed alongside its reported IC50.
Provide the reading as a plain figure in µM.

CCCNc1nc(C)c(-c2nc3ccccc3s2)c(N[C@@H]2C[C@H](CO)[C@@H](O)[C@H]2O)n1: 0.24
Cc1cc(Nc2ncc(-c3nc4ccncc4s3)c(N[C@@H]3C[C@H](CO)[C@@H](O)[C@H]3O)n2)cc(C)n1: 0.3
OC[C@H]1C[C@@H](Nc2nc(Nc3ccccc3)ncc2-c2nc3ccccc3s2)[C@H](O)[C@@H]1O: 42

Enquiry: Supply reported IC50 belonging to this compound: `Nc1ncc(-c2ccccn2)c(N[C@@H]2C[C@H](CO)[C@@H](O)[C@H]2O)n1`
Return: 0.83

Enquiry: Report IC50, nothing else, for this compound: `Cc1cc(Nc2ncc(-c3nc4ccccc4s3)c(N[C@@H]3C[C@H](CO)[C@@H](O)[C@H]3O)n2)cc(C)n1`
Return: 1

Enquiry: Output measured IC50 for this item: `Cc1nc(N)nc(N[C@@H]2C[C@H](CO)[C@@H](O)[C@H]2O)c1-c1nc2ccccc2s1`
Return: 1.06

Enquiry: Give a short answer stating reported IC50 for `CCCNc1ncc(-c2nc3ccccc3s2)c(N[C@@H]2C[C@H](CO)[C@@H](O)[C@H]2O)n1` .
Return: 1.19

Enquiry: Please supply the value of reported IC50 for the item `Nc1ncc(-c2nc3ccccc3s2)c(N[C@@H]2C[C@H](CO)[C@@H](O)[C@H]2O)n1`
Return: 0.24

Enquiry: Fill in reported IC50 for this entry: `Cc1cc(Nc2ncc(-c3nc4ccccc4s3)c(N[C@@H]3C[C@H](CO)[C@@H](O)[C@H]3O)n2)ccn1`
Return: 1

Enquiry: For the compound `CCc1nc(N)nc(N[C@@H]2C[C@H](CO)[C@@H](O)[C@H]2O)c1-c1nc2ccccc2s1` , give its measured IC50 value.
Return: 6.85

Enquiry: Find the measured IC50 of `Nc1nc(Cl)c(-c2nc3ccccc3s2)c(N[C@@H]2C[C@H](CO)[C@@H](O)[C@H]2O)n1` and report it.
Return: 0.17
